Target Desc: Major prion protein (Mus musculus)
Method: Inhibition of PrP-res formation in SMB (Scrapie mouse brain) cells at 10 uM; call rule not given here
Format: functional
Thanks in advance; please answer with one of these: true (1) (active), false (0) (inactive)

input: State the result this test recorded for `N#Cc1ccc(NC(=O)c2ccc(-c3ccc(C(=O)Nc4ccc(C#N)cc4)cc3)cc2)cc1` .
output: false (0)

input: Hello, I am checking results. What call was entered for `O=C(Nc1ccccc1O)c1ccc(-c2ccc(C(=O)Nc3ccccc3O)cc2)cc1` ?
output: false (0)

input: Could you kindly confirm the outcome this assay logged for `O=C(O)c1ccc(C/N=C/c2ccc(/C=N/Cc3ccc(C(=O)O)cc3)cc2)cc1` ?
output: false (0)

input: Query: recorded result category for `N#Cc1ccc(/N=C/c2ccc(/C=N/c3ccc(C#N)cc3)cc2)cc1` in this test
output: true (1)

input: Hello, I am checking results. What call was entered for `COC(=O)c1cc(/N=C/c2ccc(/C=N/c3ccc(O)c(C(=O)OC)c3)cc2)ccc1O` ?
output: false (0)

input: Hi, sorry to bother you, what did the test record for `COc1cc(NC(=O)c2ccc(-c3ccc(C(=O)Nc4ccc(C(=O)O)c(OC)c4)cc3)cc2)ccc1C(=O)O` ?
output: false (0)

input: // return assay outcome for `COC(=O)c1ccc(OC)c(NC(=O)c2ccc(C(=O)Nc3cc(C(=O)OC)ccc3OC)cc2)c1`
output: false (0)

input: Assay result, entry `Oc1ccc(/N=C/c2ccc(/C=N/c3ccc(O)cc3)cc2)cc1` — outcome?
output: false (0)

input: Record request — test call for `O=C(O)c1ccc(/N=C/c2ccc(-c3ccc(/C=N/c4ccc(C(=O)O)cc4O)cc3)cc2)c(O)c1`
output: true (1)
